# Tested on: TK-10
# Test: NCI tumour cell line growth inhibition, 48 h
Activity calls are given as the source filed them. No stated cut-off is given here; in the data, active = GI50 up to about 1.1 µM and inactive = higher.
Give measured GI50 for each item. Keep answers brief.

Input `Cc1c(NC(=S)Nc2ccc([N+](=O)[O-])cc2)c(=O)n(-c2ccccc2)n1C` . Output GI50: > 100 µM (inactive)

Reported GI50 of C=CCSS/C=C/C[S+]([O-])CC=C (stereo not drawn) : > 85.7 µM (inactive)

// GI50 lookup, compound = `N/C(=N\N=C\c1nc2ccccc2o1)c1cnccn1` , result: 30.7 µM (inactive)

----------
# System: SK-MEL-5
# Test: NCI tumour cell line growth inhibition, 48 h
Calls of active or inactive are those of the source. No stated cut-off is given here; in the data, active = GI50 up to about 1.1 µM and inactive = higher.
Metric Name: GI50

Lab book: GI50 of C[N+](C)(C)C(C1=CCCC1=O)c1ccccc1 (stereo not drawn) noted as > 100 µM (inactive)

# GI50 (molecule: `CCCCCCCCCCN(CCCCCCCCCC)C(=O)COc1c2cc(C(C)(C)C)cc1Cc1cc(C(C)(C)C)cc(c1OCC(=O)N(CCCCCCCCCC)CCCCCCCCCC)Cc1cc(C(C)(C)C)cc(c1OCC(=O)N(CCCCCCCCCC)CCCCCCCCCC)Cc1cc(C(C)(C)C)cc(c1OCC(=O)N(CCCCCCCCCC)CCCCCCCCCC)C2` ) is 13.5 µM (inactive)

Looking up CC(C)(C)N/N=N/c1cn(C2OC(CO)C(O)C2O)c(=O)[nH]c1=O (stereo not drawn) , I found its GI50 recorded as > 100 µM (inactive)

Query `CSc1c(C)c(C)nn1-c1ccccc1` yields GI50 of > 100 µM (inactive)

For record `CCOC(=O)/C=C(/C)Nc1nc2c(c(C(=O)OC)c1C#N)CCCC2` the listed GI50 is > 100 µM (inactive)

Record summary for `Cc1ccccc1CN1CC=c2ccccc2=N1` : reported GI50 = 97.9 µM (inactive)

GI50 reading for `COC(=O)CC[C@@H](C)[C@H]1CC[C@H]2[C@@H]3CC[C@@H]4C[C@H](O)CC[C@]4(C)[C@H]3CC[C@]12C` : 16.9 µM (inactive)

Record summary for `COC(=O)[C@@H]1[C@H]2CC[C@]3(C)[C@@H](OC(C)=O)CC[C@H]3[C@@H]2CC[C@H]1C(C)=O` : reported GI50 = > 100 µM (inactive)
